Overview of reported INHIBITION across a group of compounds:
- Tested on: Plasmodium berghei
- test details: Screen against P. berghei liver stage (PbLuc), transformed with Luciferase, at 2uM
- Format: functional, HepG2
- condition: tested at 2 uM
The campaign covered roughly 68,000 compounds. About 2,700 (4%) showed an effect of 50% or more. This is one part of a sample in which strong results are shown more often than they occur.
quantity: INHIBITION (%)

>>> recorded_result("COC(=O)C1CN(CC(=O)Nc2cccc(OC)c2)c2ccccc21 (stereo not drawn)")
43.88
>>> recorded_result("CN(C)[C@@H]1CN(C(=O)Cc2ccsc2)[C@@H]2CCCO[C@H]12")
16.63
>>> recorded_result("Cc1[nH]c2c(C)ccc(C)c2c1CC(=O)NCCNc1cccnc1")
64.92
>>> recorded_result("Cn1ncc2c1NC(=O)CC2c1ccccc1Cl (stereo not drawn)")
33.16
>>> recorded_result("Cc1[nH]c2c(C)ccc(C)c2c1CC(=O)NCCCNc1cccnc1")
-10.38
>>> recorded_result("Cn1cc(C(=O)NCCc2ccc(OC3CCCC3)cc2)ccc1=O")
-25.78
>>> recorded_result("O=C(NC[C@H]1OC[C@@H](NC2CCC(F)(F)CC2)[C@@H]1O)N1CCOCC1")
11.43
>>> recorded_result("Cc1cc(C)n(CC2CCCN2CC(=O)Nc2nncs2)n1 (stereo not drawn)")
37.08
>>> recorded_result("COc1ccccc1N1CCN(Cc2nc(C)c(C)o2)CC1")
-63.57
>>> recorded_result("Cc1cccc(C(C(=O)NCCCc2nnc3ccccn23)N(C)C)c1 (stereo not drawn)")
-0.59
>>> recorded_result("CN1C[C@H](O)C[C@H]1c1nc(-c2ccc3c(c2)OCO3)no1")
45.22
>>> recorded_result("Cc1[nH]c2c(C)ccc(C)c2c1CC(=O)NCC(O)c1cccnc1 (stereo not drawn)")
31.65
>>> recorded_result("CCN(CC1CCCO1)C(=O)Nc1cc(OC)c(OC)cc1C (stereo not drawn)")
-19.76
>>> recorded_result("CCn1cnnc1C1CCN(C(=O)c2cccc(-n3cccc3)c2)CC1")
-6.48
>>> recorded_result("CCN(CC1CCCO1)C(=O)Nc1cc(C(N)=O)ccc1OC (stereo not drawn)")
84.53
>>> recorded_result("CCN(CC1CCCO1)C(=O)Nc1ccc(F)cc1OC (stereo not drawn)")
22.1
>>> recorded_result("Cc1ccoc1C(=O)N1C[C@@H](OCC2CC2)[C@H]2OCCC[C@H]21")
8.25
>>> recorded_result("Cc1cc(CN2CCC(c3cc(Cc4ccccc4)n[nH]3)CC2)[nH]n1")
-3.32
>>> recorded_result("O=C1CCCN1Cc1ncn2c1CN(C(=O)c1cccc(F)c1)CCC2")
21.33
>>> recorded_result("COC(=O)C1CN(CC(=O)Nc2ccccc2Cl)c2ccccc21 (stereo not drawn)")
57.34
>>> recorded_result("CC(C)CC(=O)NCc1cccc(OCCN(C)C2CCOCC2)c1")
74.08
>>> recorded_result("Cc1cc(C2CCC2)nc(NCCC23CCCN2CCC3)n1")
-44.93
>>> recorded_result("COCC(=O)NCc1cccc(OCCN(C)C2CCOCC2)c1")
6.07

====

- System: Plasmodium berghei
- test details: Screen against P. berghei liver stage (PbLuc), transformed with Luciferase, at 2uM
- Type: functional, HepG2
- condition: tested at 2 uM
In all, about 68,000 compounds went through this assay and about 2,700 (4%) showed an effect of 50% or more. Only a selection was taken, and strong results are over-represented in it overall.
Binary classification by INHIBITION, with 20% as an inclusive lower bound for rule met; all other cases are rule not met.

>>> assigned_category("O=C(C1CC=CC1)N1C[C@H]2CN(Cc3ccncc3)C(=O)[C@H]2C1")
"rule met"
>>> assigned_category("CCc1nccn1C1CCCN(C(=O)c2ccc(OC)c(OC)c2)C1 (configuration not stated)")
"rule not met"
>>> assigned_category("Cc1nc(C)c(CN2CCOC[C@H](Oc3ccc(S(C)(=O)=O)cc3)C2)s1")
"rule not met"
>>> assigned_category("Cc1ocnc1C(=O)N(C)[C@@H]1CC[C@@H](n2ccnc2C)[C@@H]1O")
"rule not met"
>>> assigned_category("Cc1nc(C)n(C2CCCN(C(=O)c3cscn3)C2)n1 (configuration not stated)")
"rule not met"
>>> assigned_category("Cc1nn2cccnc2c1C(=O)N1CCCC(n2cccn2)C1 (configuration not stated)")
"rule not met"
>>> assigned_category("Cc1cc(C)c2[nH]c(=O)c(CN3CCCC4(C3)CN(C)C(=O)O4)cc2c1 (configuration not stated)")
"rule not met"
>>> assigned_category("CC(=O)Nc1ccc(S(=O)(=O)N2CCOC(Cn3ccnc3)C2)cc1 (configuration not stated)")
"rule not met"
>>> assigned_category("CCc1ncncc1C(=O)N1CCCC(n2nc(C)nc2C)C1 (configuration not stated)")
"rule not met"
>>> assigned_category("CNC(=O)c1cc(C)n(-c2cccc(OC)c2)c1C")
"rule met"
>>> assigned_category("COC[C@@H]1CC[C@H]2[C@H](CCN2S(=O)(=O)c2cccc(F)c2)O1")
"rule not met"
>>> assigned_category("COc1ccc(CN2CCOC[C@H](Oc3cccnc3)C2)cc1")
"rule met"
>>> assigned_category("CCn1ccnc1CN1CCN(CCOc2ccc(C#N)cc2)CC1")
"rule not met"
>>> assigned_category("Cc1cccc(O[C@H]2COCCN(Cc3sc(C)nc3C)C2)n1")
"rule not met"
>>> assigned_category("COCCC(=O)NCC1COc2cc(OC)ccc2C1 (configuration not stated)")
"rule not met"
>>> assigned_category("Cc1cc(C)cc(C(=O)Nc2cccc(CN3CCCC3C(N)=O)c2)c1 (configuration not stated)")
"rule met"
>>> assigned_category("Fc1ccc(CNc2ccccc2Cn2cncn2)cc1")
"rule met"
>>> assigned_category("Cn1nc(C(=O)N2CCC(Oc3ccc(C#N)cn3)CC2)ccc1=O")
"rule met"
>>> assigned_category("CCc1ncc(S(C)(=O)=O)c(C2CCCNC2)n1 (configuration not stated)")
"rule not met"
>>> assigned_category("O=C1CN(C(=O)c2cc3ccc(Br)cc3[nH]2)CCN1")
"rule met"
>>> assigned_category("CC(C)CN1CCOC[C@H](Oc2ccc(S(C)(=O)=O)cc2)C1")
"rule not met"
>>> assigned_category("CCCc1noc(C2CCN(C(=O)C3CCCO3)CC2)n1 (configuration not stated)")
"rule not met"
>>> assigned_category("Cc1nn2cccnc2c1C(=O)N1CCCC(n2ccnc2C)C1 (configuration not stated)")
"rule met"
>>> assigned_category("CN(C)Cc1nc2c(o1)CN(S(=O)(=O)c1cccs1)C2")
"rule not met"
>>> assigned_category("Cc1nc(C)c(CN2CCOC[C@H](Oc3ccccc3)C2)s1")
"rule met"
>>> assigned_category("Cc1ncc(C(=O)N2CCCC(n3nc(C)nc3C)C2)c(C(C)C)n1 (configuration not stated)")
"rule met"
>>> assigned_category("CCc1[nH]ncc1C(=O)N1CCCC(n2nc(C)cc2C)C1 (configuration not stated)")
"rule not met"
>>> assigned_category("Cc1occc1C(=O)N1CCCC2(CCN(CCN3CCCC3)C2=O)C1 (configuration not stated)")
"rule not met"
>>> assigned_category("COc1nccc(N2CC[C@H](CO)[C@@H](O)C2)c1C#N")
"rule not met"
>>> assigned_category("N#Cc1ccc(OC2CCN(C(=O)c3ccccc3Cl)CC2)nc1")
"rule met"
>>> assigned_category("CC1CN(CC(=O)NCCc2ccncc2)Cc2ccccc2O1 (configuration not stated)")
"rule not met"
>>> assigned_category("CCc1[nH]ncc1C(=O)N1CCCC(n2nc(C)nc2C)C1 (configuration not stated)")
"rule met"
>>> assigned_category("CN1C(=O)C2(CC(=O)Nc3c2cnn3C(C)(C)C)c2c(Cl)cccc21 (configuration not stated)")
"rule not met"
>>> assigned_category("Cc1nn2cccnc2c1C(=O)N1CCCC(n2ccnc2)C1 (configuration not stated)")
"rule met"
>>> assigned_category("O=C(CN1CCC(c2cccc(F)c2)C1)NCc1ccco1 (configuration not stated)")
"rule met"
>>> assigned_category("FC(F)(F)c1ccc(-c2c[nH]c([C@@H]3COCCN3)n2)cc1")
"rule met"
>>> assigned_category("CNc1cc(C2CN(Cc3scnc3C)CCO2)nc(C)n1 (configuration not stated)")
"rule not met"
>>> assigned_category("Cc1nccn1C1CCCN(C(=O)c2ccc(N(C)C)nc2)C1 (configuration not stated)")
"rule met"
>>> assigned_category("Cc1csc(CN2CC[C@H]3C[C@H](c4nc(C)no4)O[C@@H]3C2)n1")
"rule not met"
>>> assigned_category("CCOc1cncc(N2CCN(c3ccccc3O)CC2)n1")
"rule met"
>>> assigned_category("CN(C)c1ccc(C(=O)N2CCCC(n3cccn3)C2)cn1 (configuration not stated)")
"rule met"
>>> assigned_category("Cc1cc(N2CCCC2c2nc(C)cc(CCC(=O)O)n2)ncn1 (configuration not stated)")
"rule met"
>>> assigned_category("N#Cc1cc(F)ccc1Cn1cncn1")
"rule not met"
>>> assigned_category("FC(F)(F)Oc1ccc(-c2c[nH]c([C@@H]3COCCN3)n2)cc1")
"rule not met"
>>> assigned_category("COc1ccc(F)cc1S(=O)(=O)N1CCC(Oc2ccc(Cl)cn2)CC1")
"rule met"

Cited source: ChEMBL document CHEMBL4513216
